Source listed as patent US7189711B2.

Would you kindly list D (duration of action, time from treatment to return of body temperature to control level) for each of these compounds?
System: male Wistar rats
Experiment: Duration of action in rats as assessed from the decrease in body core temperature (radiotelemetry)
Format: in vivo
Stated Conditions: intraperitoneal, mean of 6 animals
Numbers only; they are read as h.

State its D (duration of action, time from treatment to return of body temperature to control level): CC(=O)N1N=C(c2ccc(N)cc2)c2cc(Cl)c(Cl)cc2CC1C (centres unmarked) [Example 4a, reference compound]
3.5

State its D (duration of action, time from treatment to return of body temperature to control level): CCC(=O)N1N=C(c2ccc(N)c(C)c2)c2cc(Cl)ccc2CC1C (racemic)
6

State its D (duration of action, time from treatment to return of body temperature to control level): CCC(=O)N1N=C(c2ccc(N)cc2)c2cc(Cl)ccc2CC1C (centres unmarked) [Example 2a, reference compound]
4

State its D (duration of action, time from treatment to return of body temperature to control level): CC(=O)N1N=C(c2ccc(N)c(C)c2)c2cc(Cl)c(Cl)cc2CC1C (racemic)
19

State its D (duration of action, time from treatment to return of body temperature to control level): CC(=O)N1N=C(c2ccc(N)c(C)c2)c2cc(Cl)ccc2CC1C (racemic)
20
